Tested on: NCI-H460 (FAS positive)
assay.notes: WST-1 proliferation assay, NCI-H460
Format: cell-based, human
experimental.conditions: NCI-H460; single agent, per experiment line
endpoint.label: IC50 (nM)
Give bare numbers, in nM.

Read the entry [NH2][Pt]([NH2])([Cl])[Cl] [DDP, cisplatinum, reference compound] and write its reported IC50.
1300

----------
Tested on: T98G
assay.notes: WST-1 proliferation assay, T98G
Format: cell-based
experimental.conditions: Homo sapiens
pIC50: −log10 of the molar value.
Outcome label depends on pIC50 relative to 7: at/above gives T, below gives F.

Below are worked cases with known answers.
>  <compound>
CC[C@@]1(O)C(=O)OCc2c1cc1n(c2=O)Cc2cc3ccccc3nc2-1

>  <answer.label>
T

$$$$
>  <compound>
COc1cccc2c1C(=O)c1c(O)c3c(c(O)c1C2=O)C[C@@](O)(C(=O)CO)C[C@@H]3O[C@H]1C[C@H](N)[C@H](O)[C@H](C)O1

>  <answer.label>
F

$$$$
>  <compound>
Cn1nnc2c(C(N)=O)ncn2c1=O [TMZ, Temozolomide]

>  <answer.label>
F

$$$$
>  <compound>
C#Cc1cccc(Nc2ncnc3cc(OCCOC)c(OCCOC)cc23)c1

>  <answer.label>
F

$$$$

Assess whether reported pIC50 for CCCCCCCCCCCCCCCCCCOCC(COP(=O)([O-])OCC[N+](C)(C)C)OC (racemic) sits at 7 or higher.
F
